Target: mu opiate receptor (MOR) (Rattus norvegicus, UniProt P33535)
Construct: from tissue; host or cells: striatal tissue (membrane preparation)
Sequence (P33535 whole entry): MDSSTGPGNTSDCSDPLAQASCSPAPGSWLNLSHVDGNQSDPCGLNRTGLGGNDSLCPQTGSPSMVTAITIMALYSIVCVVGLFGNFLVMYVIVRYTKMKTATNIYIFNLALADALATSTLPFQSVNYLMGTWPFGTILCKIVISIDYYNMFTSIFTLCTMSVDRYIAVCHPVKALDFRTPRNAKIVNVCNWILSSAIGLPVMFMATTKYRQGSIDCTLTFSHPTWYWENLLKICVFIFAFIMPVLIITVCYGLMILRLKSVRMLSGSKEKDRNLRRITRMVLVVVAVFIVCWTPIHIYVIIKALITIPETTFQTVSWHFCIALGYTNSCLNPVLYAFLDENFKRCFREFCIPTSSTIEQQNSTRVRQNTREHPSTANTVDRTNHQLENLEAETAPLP
Test: MOR agonist activity using [35S]GTPγS binding assay in striatal membranes
Assay type: biochemical
Details: 1 μM compound + 1 μM β-FNA (MOR antagonist); striatal membranes
Label 1.0 when MOR agonist activity, [35S]GTPγS binding, 1 μM + BFNA < 80%; otherwise 0.0.

Examples with answers:
O=C1CN(Cc2ccccc2)C2(CCNCC2)N1 [Compound C0115M]; 0.0
CN1CCC2(CC1)NCC(=O)N2Cc1ccccc1 [Compound C0105M]; 1.0
O=[N+]([O-])c1ccc(S(=O)(=O)N2CCC3(CC2)NCCCO3)cc1; 0.0
CCCCN1CCC2(CC1)OCCN2S(=O)(=O)c1ccc(OC)cc1 [Compound C0102M]; 0.0
CC(=O)N1CCSC12CCN(S(=O)(=O)c1ccc([N+](=O)[O-])cc1)CC2; 1.0

INPUT: Is MOR agonist activity, [35S]GTPγS binding, 1 μM + BFNA of CC(=O)c1ccc(S(=O)(=O)N2C(Cc3c[nH]cn3)C(=O)NC23CCNCC3)cc1 (centres unmarked) [Compound C0119M] strictly below 80%?
OUTPUT: 1.0

INPUT: Is MOR agonist activity, [35S]GTPγS binding, 1 μM + BFNA of "COc1ccc(S(=O)(=O)N2CCOC23CCN(C(=O)OC(C)(C)C)CC3)cc1" strictly below 80%?
OUTPUT: 0.0

INPUT: Is MOR agonist activity, [35S]GTPγS binding, 1 μM + BFNA of "COc1ccc(S(=O)(=O)N2CCOC23CCNCC3)cc1" strictly below 80%?
OUTPUT: 1.0
